Overview of recorded IC50 for various binders
Target: T1, CD24-GST fusion protein
T1 chain: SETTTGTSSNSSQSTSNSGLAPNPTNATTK
Assay: competitive ELISA
# value in µg/mL; strip the unit string

{"columns": ["binder", "units", "result"],
 "data": [
  ["PP6228 (antibody, V domains shown) VH: EVKFEESGGGLVQPGGSIKLSCAASGVAFSGAWMDWVRQSPEKGLEWVAEIRDKTKNYVTYYAESVKGRFTISRDDSKSRVYLQMNNLRTEDTGVYYCTGAMDYWGQGTSVTVSS VL: DIVMTQTPLSLSVTIGQPASISCKSSQSLLYSNGKTYLNWLQQRPGQSPKRLIYQVSKLDPGIPDRFSGSGSETDFTLKISRVEAEDLGIYYCLQGTSYPWTFGGGTKLEIKR", "µg/mL", 0.0888]
]}

// next entry
Look up IC50: PP6235 (antibody, V domains shown) VH: EVKFEESGGGLVQPGGSIKLSCAASGVAFSGAWMDWVRQSPEKGLEWVAEIRDKTKNYVTYYAESVKGRFTISRDDSKSRVYLQMNNLRTEDTGVYYCTGAMDYWGQGTSVTVSS VL: DIVMTQTPLSLSVTIGQPASISCKSSQSLLYSNGKTYLNWLQQRPGQSPKRLIYQVSKLDPGIPDRFSGSGSETDFTLKISRVEAEDLGIYYCMQGASLPWTFGGGTKLEIKR
0.0411
